- Experiment Notes: HPLC stability study in phosphate buffers
- Assay type: physicochemical
- Settings: phosphate buffer; pH 7.4; study over 7 h
Quantity Name: remaining at 7 h, 14.6 µg/mL (%)
Respond numerically; units are % and should not be typed.

Briefly, remaining at 7 h, 14.6 µg/mL measured for COc1ccc(/C=C\c2cc(OC)c(OC)c(OC)c2)cc1O [CA-4, Combretastatin A-4, reference compound] : 89

* * *

Known GI50 of a selection of compounds
- Test system: A498
- Experiment Notes: NCI-60 SRB screen, renal cancer
- Assay type: cell-based, human
- Settings: Homo sapiens; A498; five dose 0.01–100 µM, 48 h; read-out: GI50
Respond numerically; units are nM and should not be typed.

INSERT INTO assay_data (compound, subject_of_test, reading) VALUES
  ('COc1ccc(C2C(C(C)C)C(=O)N2c2cc(OC)c(OC)c(OC)c2)cc1OP(=O)(O)O (stereo not drawn) [15b]', 'A498', 104),
  ('C=C(C)C1C(=O)N(c2cc(OC)c(OC)c(OC)c2)C1c1ccc(OC)c(N)c1 (stereo not drawn) [9s]', 'A498', 23.4),
  ('C=C(C)C1C(=O)N(c2cc(OC)c(OC)c(OC)c2)C1c1ccc(OC)cc1 (stereo not drawn) [9h]', 'A498', 24.3),
  ('C=CCC1C(=O)N(c2cc(OC)c(OC)c(OC)c2)C1c1ccc(OC)c(O)c1 (stereo not drawn) [10p]', 'A498', 17.5);

Turning to the following compound.
Briefly, GI50 measured for C=C(C)C1C(=O)N(c2cc(OC)c(OC)c(OC)c2)C1c1ccc(OC)c(OP(=O)(O)O)c1 (stereo not drawn) [15a] : 32.4

* * *

- Experiment Notes: HPLC stability study in phosphate buffers
- Format: physicochemical
- Settings: phosphate buffer; pH 7.4; study over 24 h
Quantity Name: remaining at 24 h, 14.6 µg/mL (%)
Respond numerically; units are % and should not be typed.

INSERT INTO results (molecule, reading) VALUES
  ('C=C(C)C1C(=O)N(c2cc(OC)c(OC)c(OC)c2)C1c1ccc(OC)c(O)c1 (centres unmarked) [9q]', 35);

Turning to the following molecule.
Briefly, remaining at 24 h, 14.6 µg/mL measured for C=C(C)C1C(=O)N(c2cc(OC)c(OC)c(OC)c2)C1c1ccc(OC)c(OP(=O)(O)O)c1 (centres unmarked) [15a] : 98

* * *

- Test system: MDA-MB-231/ATCC
- Experiment Notes: NCI-60 SRB screen, breast cancer
- Format: cell-based, human
- Settings: Homo sapiens; MDA-MB-231; obtained from NCI; five concentrations 0.01–100 μM; 48 h; read-out: Antiproliferative Activity IC50
Quantity Name: IC50 (nM)
Respond numerically; units are nM and should not be typed.

INSERT INTO measurements (compound, reading) VALUES
  ('C=CCC1C(=O)N(c2cc(OC)c(OC)c(OC)c2)C1c1ccc(OC)cc1 (centres unmarked) [10h]', 120);

Turning to the following compound.
Briefly, IC50 measured for C=CCC1C(=O)N(c2cc(OC)c(OC)c(OC)c2)C1c1ccc(OC)c(N)c1 (centres unmarked) [10r] : 35.2

* * *

- Tested on: MCF-7 human breast cancer cells
- Experiment Notes: cells
- Settings: MCF7, 72 h, read-out: Antiproliferative Activity IC50, MCF-7, 72 h, eight concentrations (0.001–50 mM [sic]), mean ± SEM, Table 5
Quantity Name: pIC50
Quick note: pIC50 means taking -log10 of the concentration in moles per liter.

Some entries whose results are on file:
INSERT INTO results (compound, subject_of_test, reading) VALUES
  ('COc1cc(N2C(=O)C(C3C=CCC4C(=O)N(c5ccccc5)C(=O)C43)C2c2ccc(Cl)cc2)cc(OC)c1OC (stereo not drawn) [21a]', 'MCF-7 human breast cancer cells', 3.97),
  ('COc1cc(N2C(=O)C(CC3CO3)C2c2ccccc2)cc(OC)c1OC (stereo not drawn) [compound 20]', 'MCF-7 human breast cancer cells', 4.29),
  ('COc1ccc(C2C(C3C=CCC4C(=O)OC(=O)C43)C(=O)N2c2cc(OC)c(OC)c(OC)c2)cc1O (stereo not drawn) [21d]', 'MCF-7 human breast cancer cells', 4.04),
  ('COc1ccc(C2C(CC=Cc3ccccc3)C(=O)N2c2cc(OC)c(OC)c(OC)c2)cc1 (stereo not drawn) [17a]', 'MCF-7 human breast cancer cells', 6.48);

Briefly, pIC50 measured for COc1cc(N2C(=O)C(C3C=CCC4C(=O)OC(=O)C43)C2c2ccc(Br)cc2)cc(OC)c1OC (stereo not drawn) [21b] : 4.02

Briefly, pIC50 measured for COc1ccc(C2C(CC=Cc3ccc(C(F)(F)F)cc3)C(=O)N2c2cc(OC)c(OC)c(OC)c2)cc1 (stereo not drawn) [17d] : 4.31

* * *

- System: SN12C
- Experiment Notes: NCI-60 SRB screen, renal cancer
- Type: cell-based, human
- Settings: Homo sapiens, five dose 0.01–100 µM, 48 h, read-out: GI50
Quantity Name: GI50
Give the figure together with its unit, number first.

Some entries whose results are on file:
INSERT INTO measurements (compound, reading) VALUES
  ('C=CCC1C(=O)N(c2cc(OC)c(OC)c(OC)c2)C1c1ccc(OC)c(O)c1 (stereo not drawn) [10p]', '29.8 nM'),
  ('C=C(C)C1C(=O)N(c2cc(OC)c(OC)c(OC)c2)C1c1ccc(OC)c(OP(=O)(O)O)c1 (stereo not drawn) [15a]', '192 nM');

Briefly, GI50 measured for C=C(C)C1C(=O)N(c2cc(OC)c(OC)c(OC)c2)C1c1ccc(OC)cc1 (stereo not drawn) : 50.3 nM

Briefly, GI50 measured for C=C(C)C1C(=O)N(c2cc(OC)c(OC)c(OC)c2)C1c1ccc(OC)c(N)c1 (stereo not drawn) : 62.9 nM

Briefly, GI50 measured for COc1ccc(C2C(C(C)C)C(=O)N2c2cc(OC)c(OC)c(OC)c2)cc1OP(=O)(O)O (stereo not drawn) [15b] : 463 nM

Briefly, GI50 measured for C=C(C)C1C(=O)N(c2cc(OC)c(OC)c(OC)c2)C1c1ccc(OC)c(O)c1 (stereo not drawn) : 37 nM

* * *

Known pIC50 of a selection of molecules
- Tested on: MCF-7 human breast cancer cells
- Experiment Notes: cells
- Settings: MCF7, 72 h, read-out: Antiproliferative Activity IC50, MCF-7, 72 h, eight concentrations 1–50 μM, mean ± SEM, Table 2
Quick note: pIC50 means taking -log10 of the concentration in moles per liter.

Some entries whose results are on file:
INSERT INTO results (molecule, reading) VALUES
  ('C=C(C)C1C(=O)N(c2cc(OC)c(OC)c(OC)c2)C1c1ccc2ccccc2c1 (stereo not drawn)', 4.11),
  ('C=C(C)C1C(=O)N(c2cc(OC)c(OC)c(OC)c2)C1c1ccc([N+](=O)[O-])cc1 (stereo not drawn)', 5.30);

Briefly, pIC50 measured for C=C(C)C1C(=O)N(c2ccc(SC)cc2)C1c1cc(OC)c(OC)c(OC)c1 (stereo not drawn) : 6.88

* * *

- Experiment Notes: HPLC stability study in phosphate buffers
- Type: physicochemical
- Settings: phosphate buffer, pH 9; read-out: half-life (t½) (converted)
Quantity Name: half-life at 14.6 µg/mL (h)
Respond numerically; units are h and should not be typed.

Briefly, half-life at 14.6 µg/mL measured for C=C(C)C1C(=O)N(c2cc(OC)c(OC)c(OC)c2)C1c1ccc(OC)c(O)c1 (stereo not shown) : 6

* * *

- Experiment Notes: HPLC stability study in phosphate buffers
- Type: physicochemical
- Settings: phosphate buffer; pH 4.0; study over 7 h
Quantity Name: remaining at 7 h, 14.6 µg/mL

Briefly, remaining at 7 h, 14.6 µg/mL measured for COc1ccc(/C=C\c2cc(OC)c(OC)c(OC)c2)cc1O [CA-4, Combretastatin A-4, reference compound] : 97%

* * *

- Tested on: U251
- Experiment Notes: NCI-60 SRB screen, CNS cancer
- Type: cell-based, human
- Settings: Homo sapiens, U-251; U251; five dose 0.01–100 µM, 48 h; read-out: GI50
Simple rule here: GI50 less than 40 nM is Yes, otherwise No.

Q) Please indicate whether the reported GI50 of C=CCC1C(=O)N(c2cc(OC)c(OC)c(OC)c2)C1c1ccc(OC)c(O)c1 (stereo not drawn) [10p] is strictly below 40 nM.
A) Yes

Q) Please indicate whether the reported GI50 of C=C(C)C1C(=O)N(c2cc(OC)c(OC)c(OC)c2)C1c1ccc(OC)c(N)c1 (stereo not drawn) is strictly below 40 nM.
A) Yes

Q) Please indicate whether the reported GI50 of C=C(C)C1C(=O)N(c2cc(OC)c(OC)c(OC)c2)C1c1ccc(OC)cc1 (stereo not drawn) is strictly below 40 nM.
A) Yes

Q) Please indicate whether the reported GI50 of C=C(C)C1C(=O)N(c2cc(OC)c(OC)c(OC)c2)C1c1ccc(OC)c(O)c1 (stereo not drawn) is strictly below 40 nM.
A) Yes

Q) Please indicate whether the reported GI50 of COc1ccc(C2C(C(C)C)C(=O)N2c2cc(OC)c(OC)c(OC)c2)cc1OP(=O)(O)O (stereo not drawn) [15b] is strictly below 40 nM.
A) No

Measured values drawn from paper PMC10385824 for this set.
